Assay: Transmission of aqueous vitamin / castor oil ethoxylate formulations (Turbiscan LAb)
Assay type: physicochemical
Conditions: Example 1: 4 g vitamin + 4 g CO20EO + 28 g water, ingredients preheated to 50° C.; higher = clearer, better; unit assumed
Each item that follows carries a reported transmission (light passing through the emulsion).
VALUE KIND: transmission (light passing through the emulsion) (%)

# COMPOUND, QUANTITY UNIT, VALUE
records = [
    ("C=C1CC[C@H](O)C/C1=C/C=C1\\CCC[C@]2(C)[C@@H]([C@H](C)CCCC(C)C)CC[C@@H]12 [Vit D3]", "%", 56.7),
    ("CC(=O)OC/C=C(C)/C=C/C=C(C)/C=C/C1=C(C)CCCC1(C)C [Vit A acetate]", "%", 2.2),
]

---

Assay: Transmission of aqueous vitamin / castor oil ethoxylate formulations (Turbiscan LAb)
Format: physicochemical
Conditions: Comparative Example A: 4 g vitamin + 4 g CO28EO + 28 g water, ingredients preheated to 50° C.; unit assumed
Method: Castor oil ethoxylates were evaluated in formulations with various vitamins by mixing 4 g of a vitamin with 4 g of the castor oil ethoxylate and subsequently adding 28 g water. All ingredients were preheated to 50° C. The transmission (light passing the through the emulsion) was measured using standard Turbiscan™ LAb equipment ex Formulaction. In the evaluation of the samples the highest transmission is looked for, since it indicates a clearer (and better) formulation.
VALUE KIND: transmission (light passing through the emulsion) (%)

# SMILES STRUCTURE, QUANTITY UNIT, VALUE
rows = [
    ("C=C1CC[C@H](O)C/C1=C/C=C1\\CCC[C@]2(C)[C@@H]([C@H](C)CCCC(C)C)CC[C@@H]12", "%", 64.4),
]

meta.source: patent US8318196B2
